assay: in vitro; settings: rat, liver microsomes
ENDPOINT_LABEL: half-life

Example entries begin here.
COMPOUND: CC(C)n1c(=O)c(C(=O)N[C@H]2C[C@H]3CC[C@@H](C2)N3C[C@@H](O)CN2CCN(S(C)(=O)=O)CC2)cc2ccccc21
half-life: > 1.5 h

COMPOUND: CCCCCNC(=N)N/N=C/c1c[nH]c2ccc(OC)cc12 [TEGASEROD]
half-life: > 1.5 h

For each of the compounds below, note its half-life.
1. CC(C)n1c(=O)c(C(=O)N[C@H]2C[C@H]3CC[C@@H](C2)N3CCCN2CCN(S(C)(=O)=O)CC2)cc2ccccc21
2. CC(C)n1c(=O)c(C(=O)N[C@H]2C[C@H]3CC[C@@H](C2)N3CCCCCCCN2CCN(S(C)(=O)=O)CC2)cc2ccccc21

0.683 h
> 1.5 h
